Quick reference: z-score of the listed items.
# ASSAY NOTES: basal MM1S mitochondrial membrane potential changes, profiling panel, cell-based, JC-1 fluorescence, 24 h, 100 nL compound (AID 1170); further: test concentration not given here
# EXPERIMENTAL CONDITIONS: higher = more signal
OBSERVATION TYPE: z-score

molecule=[N-]=[N+]=Nc1ccccc1C[C@@]1(C(=O)NCc2ccccc2)N=C(c2ccc(OCCCO)cc2)O[C@@H]1c1ccccc1 observation_type=z-score test_value=-0.738
molecule=O=C1O[C@@H](c2ccccc2)[C@@H](c2ccccc2)N2[C@@H](c3ccc(OCCO)cc3)[C@]3(C(=O)Nc4ccc(C#CC5=CCCCC5)cc43)[C@@H](C(=O)Nc3nc4ccccc4s3)[C@H]12 observation_type=z-score test_value=-1.92
molecule=COCCOC(=O)N1C(=O)[C@@]2(c3cc(C#CCNC(N)=O)ccc31)[C@H](C(=O)N1CCN(c3ncccn3)CC1)[C@H]1C(=O)O[C@H](c3ccccc3)[C@H](c3ccccc3)N1[C@@H]2c1ccc(O)cc1 observation_type=z-score test_value=-0.564
molecule=C=CCOC(=O)[C@H]1[C@@H]2C(=O)O[C@@H](c3ccccc3)[C@@H](c3ccccc3)N2[C@@H](c2ccc(OCCOC(=O)[C@H]3C[C@H]4C(=O)NCC(=O)N4[C@H]3c3ccc(O)cc3)cc2)[C@]12C(=O)Nc1ccccc12 observation_type=z-score test_value=-0.821
molecule=COCCCNC(=O)[C@@]1(Cc2ccccc2I)c2ccccc2C(=O)N(C2CCCCC2)[C@H]1c1ccc(CO)cc1 observation_type=z-score test_value=-1.01
molecule=CC(C)C[C@@H]1NC(=O)[C@@H]2C[C@H](C(=O)NCCCCCCNC(=O)CS)[C@H](c3ccc(O)cc3)N2C1=O observation_type=z-score test_value=-0.391
molecule=C=CC[C@H](O)c1ccc(O)c2ccccc12 observation_type=z-score test_value=-1.71
molecule=COc1ccc(C(=O)Nc2cccc(CN3C(=O)[C@]4(O[C@H](CC(=O)N(CCO)Cc5ccccc5)[C@@H]([Si](C)(C)c5ccc(OC)cc5)[C@@H]4C)c4ccccc43)c2)cc1 observation_type=z-score test_value=-1.51
molecule="CCN1C(=O)C2CC(=O)C3C(CN(S(=O)(=O)c4ccc(C)cc4)C3c3ccc(C)cc3)C2C1=O (configuration not stated)" observation_type=z-score test_value=-1.25
molecule=COC(=O)C(CC#Cc1ccc2c(c1)[C@]1(C(=O)N2)[C@H](C(=O)N2CCCCCCC2)[C@H]2C(=O)O[C@H](c3ccccc3)[C@H](c3ccccc3)N2[C@@H]1c1ccc(OCCO)cc1)C(=O)OC observation_type=z-score test_value=-1.44
molecule=C=CC[C@]12N=C(c3ccc(OCCCO)cc3)O[C@H]1c1ccccc1N(CCC)C2=O observation_type=z-score test_value=-0.207
molecule=CO[C@H]1O[C@H](CO)[C@@H](OC(=O)CCc2ccccc2)[C@@H]2OC(=O)[C@@H](Cc3ccc4ccccc4c3)C/C=C/C[C@H](Cc3ccc4ccccc4c3)C(=O)O[C@@H]12 observation_type=z-score test_value=0.0944
molecule=COC(=O)[C@@]1(Cc2ccc(F)cc2)[C@H]2c3cc(C(=O)N4CCCC4)n(CCSCCO)c3C[C@H]2CN1C(=O)c1ccccc1 observation_type=z-score test_value=-0.303
molecule=COCCCNC(=O)[C@@]1(CCC(=O)OC(C)(C)C)N=C(c2ccc(OCCCO)cc2)O[C@H]1c1ccccc1 observation_type=z-score test_value=-1.08
molecule=C[C@@]1([C@@H](NS(=O)(=O)c2cccc3cccnc23)c2ccc(-c3ccccc3)cc2)C[C@H]1C1CCCCC1 observation_type=z-score test_value=-1.72
molecule=C=CCNC(=O)[C@H]1[C@@H]2C(=O)O[C@@H](c3ccccc3)[C@@H](c3ccccc3)N2[C@@H](c2ccc(O)cc2)[C@]12C(=O)Nc1ccccc12 observation_type=z-score test_value=0.24
molecule="CCCCN1CC=CC23O[C@@H]4/C=C\\CCC(C)OC(=O)C4[C@H]2C(=O)N(CCO)[C@@H]3C1=O (some centres not stated)" observation_type=z-score test_value=0.213
molecule=C=C(C(=O)CC[C@H](OC(=O)c1ccccc1-c1ccccc1C(=O)O)c1ccc(OCCO)cc1)C(C)C observation_type=z-score test_value=-0.0663
molecule=CC(C)N1C(=O)[C@@]2(Cc3ccccc31)c1ccccc1C(=O)N(Cc1ccccc1C(F)(F)F)[C@H]2c1ccc(CO)cc1 observation_type=z-score test_value=1.03
molecule=COc1cccc(C)c1NC(=O)O[C@H]1[C@H](OC(=O)Nc2ccccc2)[C@@H](OC(=O)Nc2ccccc2)[C@@H](OC)O[C@@H]1CO observation_type=z-score test_value=0.0418
molecule="[N-]=[N+]=Nc1ccccc1C[C@@]1(C(=O)NCC(O)CO)N=C(c2ccc(OCCCO)cc2)O[C@@H]1c1ccccc1N=[N+]=[N-] (some centres not stated)" observation_type=z-score test_value=-1.34
molecule="COc1cc(CO)cc(I)c1O[C@H]1C=C(C(=O)NCCO)C[C@@H](N(CCN2CCOCC2)C(=O)C2CCCO2)[C@@H]1O (some centres not stated)" observation_type=z-score test_value=-0.1
molecule=O=C(CS)NCCCCCCNC(=O)[C@H]1C[C@H]2C(=O)NCC(=O)N2[C@H]1c1cccc(OCCO)c1 observation_type=z-score test_value=-0.497
molecule="COC(=O)C1(CC(C)C)C=C2C(=C(C)C(=O)C2C)CN1 (configuration not stated)" observation_type=z-score test_value=-0.92
molecule=CO[C@H]1O[C@H](CO)[C@@H](OC(=O)Nc2cccc(F)c2)[C@H](OC(=O)Nc2ccc3c(c2)OCO3)[C@@H]1OC(=O)Nc1ccc2c(c1)OCO2 observation_type=z-score test_value=-0.964
molecule=COC(=O)[C@]1(Cc2ccccc2N=[N+]=[N-])N=C(c2ccc(OCCCO)cc2)O[C@@H]1c1ccccc1CN=[N+]=[N-] observation_type=z-score test_value=-2.61
molecule="CCOC(=O)C1=CCC(c2cccn2C(=O)OC(C)(C)C)N(S(=O)(=O)c2ccc(C)cc2)C1 (configuration not stated)" observation_type=z-score test_value=-2.93

These measurements were taken from PubChem BioAssay.
